The compounds listed here are annotated with their Variat. (%) of mean secretion vs controls.
- Tested on: elimination of phenol red from the respiratory fluid
- Measurement Notes: Mucosecretolytic activity (phenol red test in the mouse)
- Format: in vivo
- Measurement Parameters: 100 mg/kg os
Where a SMILES comes first, the peptide text is derived from it. [ ]: non-standard residue; d: D form. pGlu = O=C1CC[C@@H](C(=O)O)N1
Property Name: Variat. (%) of mean secretion vs controls

- Compound: "O=C1CC[C@@H](C(=O)N[C@@H](CS)C(=O)O)N1 [N-(5-oxo-L-prolyl)-L-cysteine] ([pGlu]-Cys-OH)"
  Observed Measurement: "+92.7%"
- Compound: "COC(=O)[C@H](CS)NC(=O)[C@@H]1CCC(=O)N1 [Ic] ([pGlu]-Cys-OMe)"
  Observed Measurement: "+143.2%"
- Compound: "CC(=O)N[C@@H](CS)C(=O)O"
  Observed Measurement: "+61.9%"
- Compound: "O=C(O)[C@H](CS)NC(=O)[C@@H]1CCC(=S)N1"
  Observed Measurement: "+112.8%"
